tested on: mu opiate receptor (MOR); test: MOR agonist activity using [35S]GTPγS binding assay in striatal membranes; type: biochemical; conditions: Series B; 1 μM compound + β-FNA, relative to DAMGO + BFNA
Assign % DAMGO + BFNA to each entry below.
# output: number + unit

Before answering, review these 3 worked examples.
>  <compound>
COc1ccc(CCC(O)CC2c3c(cc4c(c3OC)OCO4)CC[N+]2(C)C)cc1 (stereo not shown) [Compound B0049]

>  <outcome measure>
% DAMGO + BFNA

>  <recorded measurement>
506.5%

$$$$
>  <compound>
COc1cc(C(=O)CC2c3c(cc4c(c3OC)OCO4)CC[N+]2(C)C)cc(OC)c1OC (stereo not shown) [Compound B0037]

>  <outcome measure>
% DAMGO + BFNA

>  <recorded measurement>
325.8%

$$$$
>  <compound>
COc1c2c(cc3c1C(CC(=O)c1ccc(C#N)cc1)[N+](C)(C)CC3)OCO2 (stereo not shown) [Compound B0001]

>  <outcome measure>
% DAMGO + BFNA

>  <recorded measurement>
43.1%

$$$$

Shifting focus to the compound that follows.
Lab note: need % DAMGO + BFNA for COc1cccc(OC)c1CC(=O)CC1c2c(cc3c(c2OC)OCO3)CC[N+]1(C)C (stereo not shown) [Compound B0036] on mu opiate receptor (MOR), anyone have it?
199.7%

// data source = patent US10363239B2
